Molecular target: CDK 5 (Homo sapiens, UniProt Q00535)
Sequence (Q00535 whole entry): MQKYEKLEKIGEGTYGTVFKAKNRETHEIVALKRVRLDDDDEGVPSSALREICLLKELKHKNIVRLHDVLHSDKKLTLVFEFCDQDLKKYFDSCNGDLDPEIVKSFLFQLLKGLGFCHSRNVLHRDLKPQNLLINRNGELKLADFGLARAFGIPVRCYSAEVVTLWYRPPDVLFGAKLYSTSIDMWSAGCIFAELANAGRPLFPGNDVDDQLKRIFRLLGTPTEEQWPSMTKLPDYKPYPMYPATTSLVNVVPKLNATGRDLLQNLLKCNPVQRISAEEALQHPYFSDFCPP
Sequence (Q15078 whole entry partner): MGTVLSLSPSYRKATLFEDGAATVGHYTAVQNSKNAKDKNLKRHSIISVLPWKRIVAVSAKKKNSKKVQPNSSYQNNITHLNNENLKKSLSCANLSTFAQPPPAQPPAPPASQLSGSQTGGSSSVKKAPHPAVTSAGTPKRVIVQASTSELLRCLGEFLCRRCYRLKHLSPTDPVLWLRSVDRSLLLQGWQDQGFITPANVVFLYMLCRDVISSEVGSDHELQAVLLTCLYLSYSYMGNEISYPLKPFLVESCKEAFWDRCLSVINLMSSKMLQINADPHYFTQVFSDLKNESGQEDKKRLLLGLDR
Test: CDK5 in vitro kinase inhibition (protocol similar to Example 14)
Type: biochemical
Conditions: 100 nM; mean of three (standard deviation); read-out: CDK5 % remaining kinase activity after incubation with 100 nM of compound
Procedure: Prepared test compounds, prepared at concentrations of 1000, 100, 10, 1 and 0.1 μM. Diluted 1 in 40 in ddH2O and added 1 μl of test compound or DMSO (controls). • 3. Incubated at 30° C. for 30 mins in a water bath. • 4. Added 10 µl of ATP […] per reaction to get a final concentration of 2 μM ATP. • 5. […] Added 20 μ1 Luciferase reaction mixture (Cambrex, UK) per reaction, and further incubated at room temp for 10 mins and determined luciferase activities according to manufacturer's methods. […]
Kindly supply the reported remaining activity at 0.1 µM values for the records listed here.
Use % as the unit, but write only the number.

Name the reported remaining activity at 0.1 µM value associated with the compound CC(C)c1cnn2c(NCc3ccccc3)cc(NCCOCCO)nc12 [ICEC0063]
90

Name the reported remaining activity at 0.1 µM value associated with the compound CC(C)c1cnn2c(NCc3ccccc3F)cc(N[C@@H](CO)CCCCCN)nc12 [ICEC0055]
90

Name the reported remaining activity at 0.1 µM value associated with the compound CC(C)c1cnn2c(NCc3ccccc3)cc(NC(CO)CCCCCCc3ccccn3)nc12 (stereo not drawn) [ICEC0159]
89
